Each item that follows carries a reported viability.
Test: HUVEC growth inhibition – cell-based, human, primary screen (AID 575);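 note: 100% = median of untreated cell wells with 0.1% DMSO on each plate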
Settings: HUVEC proliferation, CellTiter-Glo luminescence, 72 h; at 10 µM; active compounds read low
Write down the numeric answer in % and omit the unit.

Please review the following examples before continuing.
COCCn1cc(C(=O)NCCCN2CCC(C)CC2)c2c3ccccc3n(C)c2c1=O	90.7
O=C(CSCc1ccc(F)cc1)NC1CCCC1	108
Cc1cc(C)c2c(=O)[nH]c(=O)n(Cc3ccccc3)c2n1	81.7
Cc1ccc(S(=O)(=O)C(C#N)c2nc3ccccc3nc2OC(C)C)cc1 (configuration not stated)	91
CC1(C)CC(=O)C=C(NC2CCS(=O)(=O)C2)C1 (configuration not stated)	107
Cc1nc2sc(C(c3cccc(F)c3)N3CCN(C(=O)c4ccco4)CC3)c(O)n2n1 (configuration not stated)	120
CCn1cc(C(=O)O)c(=O)c2cc(F)c(N3CCNCC3)nc21	84
CCCn1c(SCC(=O)NC(=O)NCc2ccco2)n[nH]c1=O	90.4

[ask] Name the recorded viability of the molecule listed here: CC(=O)c1cccc(NC(=O)NCc2ccccn2)c1
[reply] 92

[ask] Name the recorded viability of the molecule listed here: COc1ccc(CN(C(=O)c2ccccc2OC)C2CCS(=O)(=O)C2)cc1 (configuration not stated)
[reply] 115

[ask] Name the recorded viability of the molecule listed here: COc1ccccc1NC(=O)C(C)NS(=O)(=O)c1ccc(F)cc1 (configuration not stated)
[reply] 89.5

[ask] Name the recorded viability of the molecule listed here: CC(=O)Nc1ccc(NC(=O)C(C)Oc2ccccc2F)cc1 (configuration not stated)
[reply] 113
